# Test system: SNB-19
# assayInfo: NCI tumour cell line growth inhibition, 48 h
The source made the active and inactive calls. Rule as the data show it: active = GI50 up to about 1.1 µM and inactive = higher.
Outcomes: active, inactive

* CN1C(=O)N(C)C(O)C(Cl)(Br)C1=O (stereo not given) | inactive
* CC(C)(C)c1cc(C(C)(C)C)c2sc(=O)oc2c1O | inactive
* C/C=C/C1OC(O)(C(C)C(O)[C@H](C)C2OC(=O)/C(OC)=C/C(C)=C/[C@@H](C)[C@@H](O)[C@@H](C)C(O)C(C)C/C(C)=C/C=C/C2OC)C[C@@H](OC2CC(O)C(OC(N)=O)C(C)O2)C1C (stereo not given in full) | active
* Cc1oc2c(C)c(O)c3c(c2c1C1(C)OCCO1)C(=O)C=C(Cl)C3=O | inactive
* CC1(C)OC(=O)C(Cc2ccccc2)(Cc2ccccc2)C(=O)O1 | inactive
* COCCCCCC(=O)CP(=O)(OC)OC | inactive
* CC(Br)C(=O)c1ccc2cc(Br)c3ccccc3c2c1 (stereo not given) | inactive
* Cc1nc(O)nc(N(CCO)/N=C/c2ccc(Cl)cc2)c1C(=O)Nc1ccc(Cl)cc1 | inactive
* CC(C)CNC(=O)O | inactive
* Cc1cc(C)nc(NS(=O)(=O)c2ccc(Nc3c4ccc(Cl)cc4nc4c(C(=O)Nc5ccc(S(N)(=O)=O)cc5)cccc34)cc2)n1 | inactive
